// reported EC50 per item
# Tested on: NF-κB pathway in THP-1 dual cells
# Test details: THP-1 Dual Reporter Assay, NF-κB pathway (SEAP reporter)
# Type: cell-based
# Condition notes: Homo sapiens, THP1-Dual, 18 h of stimulation, absorbance at 630 nm, read-out: THP1 Dual EC50 (μM) NFkB

O=c1c(CN(CCCc2cccnc2)Cc2ccncc2)coc2c1cc(F)c1ccccc12 [Example 54]
≤ 10 µM
O=c1c(CN(CCCn2ccnc2)Cc2ccncc2)coc2c1cc(F)c1ccccc12 [Example 47]
≤ 10 µM
COc1cc(CN(CCCn2ccnc2)Cc2cn(C)c3ccccc3c2=O)ccn1 [Example 44]
≥ 20 µM
O=c1c(CN(CCCc2ccncc2)Cc2ccncc2)coc2ccccc12 [Example 21]
10 to 20 µM

Please find the next compound below.
COc1cc(CN(CCCn2ccnc2)Cc2coc3c(ccc4ccccc43)c2=O)ccn1 [Example 30] on NF-κB pathway in THP-1 dual cells gives EC50 = ≤ 10 µM

###

# Assayed target: human STING (Homo sapiens)
# Sequence (Q86WV6 whole entry H232R): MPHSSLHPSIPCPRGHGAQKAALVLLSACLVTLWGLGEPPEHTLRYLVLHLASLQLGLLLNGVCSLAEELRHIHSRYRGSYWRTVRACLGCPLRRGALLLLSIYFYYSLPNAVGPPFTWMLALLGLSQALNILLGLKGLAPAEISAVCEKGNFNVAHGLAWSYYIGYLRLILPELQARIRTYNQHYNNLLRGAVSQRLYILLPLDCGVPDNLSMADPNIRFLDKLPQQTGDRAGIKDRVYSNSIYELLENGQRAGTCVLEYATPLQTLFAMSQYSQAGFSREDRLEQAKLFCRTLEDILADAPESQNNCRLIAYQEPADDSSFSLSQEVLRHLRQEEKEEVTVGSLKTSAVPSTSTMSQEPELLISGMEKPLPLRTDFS
# Test details: Fluorescence Thermal Shift assay
# Type: binding
# Condition notes: 50 μM compound; STING 0.1 mg/ml; 20 minutes preincubation; read-out: [hSTING] FTS, ΔTm [° C.] for 50 μM
Measured attribute: ΔTm at 50 µM

O=c1c(CN(CCCn2ccnc2)Cc2ccncc2)coc2c1cc(F)c1ccccc12
> 2.5 °C

# molecule O=c1c(CN(CCCn2ccnc2)Cc2ccncc2)coc2cc(Br)c(F)cc12 ; its ΔTm at 50 µM = > 2.5 °C

# molecule CN1CCN(c2ccc3c(=O)c(CN(CCCn4ccnc4)Cc4ccncc4)coc3c2)CC1 ; its ΔTm at 50 µM = > 2.5 °C

# molecule COc1cccc(-c2ccc3c(=O)c(CN(CCCn4ccnc4)Cc4ccncc4)coc3c2)c1 ; its ΔTm at 50 µM = > 2.5 °C

# molecule Cc1oc2cc(Br)ccc2c(=O)c1CN(CCCc1cccnc1)Cc1ccncc1 ; its ΔTm at 50 µM = > 2.5 °C

###

# System: NF-κB pathway in THP-1 dual cells
# Test details: THP-1 Dual Reporter Assay, NF-κB pathway (SEAP reporter)
# Format: cell-based
# Condition notes: Homo sapiens, THP1-Dual, 18 h of stimulation, absorbance at 630 nm, read-out: THP1 Dual EC50 (μM) NFkB
Measured attribute: EC50

These recorded examples may help you get a feel for the data.
COc1ccc(-c2ccc3c(=O)c(CN(CCCn4ccnc4)Cc4ccncc4)c(C)oc3c2)cc1 [Example 56]
≤ 10 µM
O=c1c(CN(CCCn2ccccc2=O)Cc2ccncc2)coc2c1ccc1ccccc12 [Example 59]
≤ 10 µM
Cc1oc2ccccc2c(=O)c1CN(CCCc1cccnc1)Cc1ccncc1 [Example 41]
10 to 20 µM
COc1cc(CN(CCCn2cc(C(N)=O)nn2)Cc2cn(C)c3ccccc3c2=O)ccn1 [Example 103]
≥ 20 µM

# molecule COc1cc(CN(CCCn2cnc3cncnc32)Cc2c(C)oc3cc(N4CCN(C)CC4)c(F)cc3c2=O)ccn1 [Example 84] ; its EC50 = ≤ 10 µM

# molecule COc1cc(CN(CCCc2cccnc2)Cc2cn(C3CC3)c3cc(F)c(F)cc3c2=O)ccn1 [Example 95] ; its EC50 = 10 to 20 µM

# molecule COc1cc(CN(CCCn2cnc3ncncc32)Cc2cn(C)c3ccccc3c2=O)ccn1 [Example 91] ; its EC50 = ≥ 20 µM

# molecule O=c1c(CN(CCCn2ccnc2)Cc2ccncc2)coc2cc(-c3ccc(F)cc3)ccc12 [Example 23] ; its EC50 = ≥ 20 µM

# molecule O=c1c(CN(CCCn2ccnc2)Cc2ccncc2)coc2c3c(ccc12)CCCC3 [Example 20] ; its EC50 = ≤ 10 µM

# molecule CN1CCN(c2cc3occ(CN(CCCc4cccnc4)Cc4ccncc4)c(=O)c3cc2F)CC1 [Example 58] ; its EC50 = ≤ 10 µM

###

# Tested on: NF-κB pathway in THP-1 dual cells
# Test details: THP-1 Dual Reporter Assay, NF-κB pathway (SEAP reporter)
# Type: cell-based
# Condition notes: Homo sapiens, THP1-Dual, 18 h of stimulation, absorbance at 630 nm, read-out: THP1 Dual EC50 (μM) NFkB
Measured attribute: EC50

These recorded examples may help you get a feel for the data.
Cc1ccc2c(=O)c(CN(CCCn3cnc4c(N)ncnc43)Cc3ccncc3)c(C)oc2c1C
10 to 20 µM
COc1cc(CN(CCCn2cnc3ccccc32)Cc2cn(C)c3ccccc3c2=O)ccn1
≤ 10 µM
Cc1oc2cc(N3CCOCC3)c(F)cc2c(=O)c1CN(CCCc1cccnc1)Cc1ccncc1
≤ 10 µM
Cc1ccc2c(=O)c(CN(CCCn3ccnc3)Cc3ccncc3)coc2c1C
≤ 10 µM
COc1cc(CN(CCCn2cnc3ccccc32)Cc2coc3c(ccc4ccccc43)c2=O)ccn1
≤ 10 µM
Cn1cc(CN(CCCn2ccnc2)Cc2ccncc2)c(=O)c2ccccc21
≥ 20 µM
O=C1CCCN1CCCN(Cc1ccncc1)Cc1coc2ccccc2c1=O
≥ 20 µM
CN1CCN(c2cc3occ(CN(CCCn4ccnc4)Cc4ccncc4)c(=O)c3cc2F)CC1
≤ 10 µM

# compound COc1cc(CN(CCCc2cncc3[nH]ncc23)Cc2c(C)oc3cc(Br)c(F)cc3c2=O)ccn1 ; its EC50 = ≥ 20 µM

###

// reported ΔTm at 50 µM per item
# Assayed target: human STING (Homo sapiens)
# Test details: Fluorescence Thermal Shift assay
# Type: binding
# Condition notes: 50 μM compound; STING 0.1 mg/ml; 20 minutes preincubation; read-out: [hSTING] FTS, ΔTm [° C.] for 50 μM

These recorded examples may help you get a feel for the data.
O=c1c(CN(CCCn2ccnc2)Cc2ccncc2)coc2ccccc12
< 2.5 °C
Cc1oc2cc(F)c(F)cc2c(=O)c1CN(CCCn1cnc2ccccc21)Cc1ccncc1
> 2.5 °C
Cc1oc2cc(C(=O)O)c(F)cc2c(=O)c1CN(CCCc1cccnc1)Cc1ccncc1
< 2.5 °C
COc1cc(CN(CCCc2cncnc2)Cc2cn(C)c3ccccc3c2=O)ccn1
> 2.5 °C
COc1cc(CN(Cc2coc3c(ccc4ccccc43)c2=O)C(C)CCc2cccnc2)ccn1 (stereo not shown)
< 2.5 °C
CN(C)c1ccc(CCCN(Cc2ccncc2)Cc2coc3c(ccc4ccccc43)c2=O)cn1
< 2.5 °C
O=c1c(CN(CCCc2cccnc2)Cc2ccncc2)coc2c1cc(F)c1ccccc12
> 2.5 °C
O=c1c(CN(CCCn2ccnc2)Cc2ccncc2)coc2cc(Br)ccc12
> 2.5 °C

# compound CC(CCn1cnc2ccccc21)N(Cc1ccncc1)Cc1coc2c(ccc3ccccc32)c1=O (stereo not shown) ; its ΔTm at 50 µM = < 2.5 °C

# compound O=c1c(CN(CCCc2cccnc2)Cc2ccncc2)coc2ccccc12 ; its ΔTm at 50 µM = > 2.5 °C

###

# System: NF-κB pathway in THP-1 dual cells
# Test details: THP-1 Dual Reporter Assay, NF-κB pathway (SEAP reporter)
# Assay type: cell-based
# Condition notes: Homo sapiens, THP1-Dual, 18 h of stimulation, absorbance at 630 nm, read-out: THP1 Dual EC50 (μM) NFkB
Measured attribute: EC50

These recorded examples may help you get a feel for the data.
COc1cccc(-c2ccc3c(=O)c(CN(CCCn4ccnc4)Cc4ccncc4)coc3c2)c1 [Example 40]
≤ 10 µM
COc1cc(CN(CCCn2ccnc2)Cc2c(C)oc3ccccc3c2=O)ccn1 [Example 46]
≥ 20 µM
O=c1c(CN(CCCn2ccnn2)Cc2ccncc2)coc2cc(Br)ccc12 [Example 22]
≥ 20 µM
O=c1c(CN(CCCCn2ccnc2)Cc2ccncc2)coc2ccccc12 [Example 1]
≥ 20 µM
Cc1oc2cc(C(=O)O)c(F)cc2c(=O)c1CN(CCCc1cccnc1)Cc1ccncc1 [Example 80]
≥ 20 µM

# compound Cn1cc(CN(CCCc2cccnc2)Cc2ccnc(Cl)c2)c(=O)c2ccccc21 [Example 90] ; its EC50 = 10 to 20 µM

# compound O=c1c(CN(CCCn2ccnc2)Cc2ccncc2)coc2cc(-c3cc[nH]n3)ccc12 [Example 71] ; its EC50 = 10 to 20 µM

# compound Cc1oc2cc(Br)ccc2c(=O)c1CN(CCCc1cccnc1)Cc1ccncc1 [Example 64] ; its EC50 = ≤ 10 µM

# compound COc1ccc2ccc3c(=O)c(CN(CCCn4cnc5ccccc54)Cc4ccncc4)coc3c2c1 [Example 62] ; its EC50 = ≤ 10 µM

# compound COc1cc(CN(Cc2coc3c(ccc4ccccc43)c2=O)C(C)CCc2cccnc2)ccn1 (stereo not shown) [Example 83] ; its EC50 = ≤ 10 µM

###

// reported ΔTm at 50 µM per item
# Assayed target: human STING (Homo sapiens)
# Test details: Fluorescence Thermal Shift assay
# Format: binding
# Condition notes: 50 μM compound; STING 0.1 mg/ml; 20 minutes preincubation; read-out: [hSTING] FTS, ΔTm [° C.] for 50 μM

These recorded examples may help you get a feel for the data.
Cn1cc(CN(CCCc2cccnc2)Cc2ccnc(Cl)c2)c(=O)c2ccccc21 [Example 90]
> 2.5 °C
O=c1c(CN(CCCc2cncc3ccccc23)Cc2ccncc2)coc2c1ccc1ccccc12 [Example 61]
< 2.5 °C
O=c1c(CN(CCCn2ccnc2)Cc2ccncc2)coc2cc(-c3ccc(F)cc3)ccc12 [Example 23]
> 2.5 °C
COc1cc(CN(CCCc2cccnc2)Cc2n[nH]c3ccccc3c2=O)ccn1 [Example 98]
> 2.5 °C
O=c1c(CN(CCCn2cnc3ccccc32)Cc2ccncc2F)coc2c1ccc1ccccc12 [Example 85]
< 2.5 °C

# compound O=c1c(CN(CCCn2ccnc2)Cc2ccncc2)coc2c3c(ccc12)CCCC3 [Example 20] ; its ΔTm at 50 µM = < 2.5 °C

Value source: patent US12162863B2
